System under test: T1, mouse Angiopoietin-2 (mouse, UniProt O35608 19-496)
T1 construct: Used as conditioned medium of transfectants; also called mAng-2; mouse Ang-2
T1 sequence: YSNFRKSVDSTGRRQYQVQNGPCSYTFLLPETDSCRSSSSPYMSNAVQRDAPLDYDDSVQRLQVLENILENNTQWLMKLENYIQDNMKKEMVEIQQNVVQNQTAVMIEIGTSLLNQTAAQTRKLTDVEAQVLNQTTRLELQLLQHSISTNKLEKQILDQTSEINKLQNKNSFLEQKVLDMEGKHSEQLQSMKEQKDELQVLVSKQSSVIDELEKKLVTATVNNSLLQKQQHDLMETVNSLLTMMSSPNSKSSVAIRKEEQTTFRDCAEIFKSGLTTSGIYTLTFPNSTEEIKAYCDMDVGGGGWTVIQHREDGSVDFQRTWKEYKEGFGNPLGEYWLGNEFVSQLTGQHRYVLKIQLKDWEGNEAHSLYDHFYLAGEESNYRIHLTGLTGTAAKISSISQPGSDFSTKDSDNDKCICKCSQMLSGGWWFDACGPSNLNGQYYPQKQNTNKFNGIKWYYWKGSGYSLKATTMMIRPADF
Experiment summary: ELISA, recombinant mouse Ang-2
Endpoint: binding result

- mAb 5.86.1 (antibody, V domains shown, Human hybridoma IgG (XenoMouse); also called x5.86) VH: QVQLVQSGAEVKKPGASVKVSCKASGYTFTGYHMYWVRQAPGQGLEWLGWINPNSGGTNYAQKFQGRVTMTRDTSISTAYMELSRLRSDDTAVYYCVRDQGIAAAGPFDYWCQGTLVTVSS VL: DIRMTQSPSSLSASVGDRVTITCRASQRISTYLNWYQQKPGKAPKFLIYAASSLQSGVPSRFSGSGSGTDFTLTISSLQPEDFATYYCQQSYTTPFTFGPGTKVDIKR: no binding
- mAb 5.88.3 (antibody, V domains shown, Human hybridoma IgG (XenoMouse); also called x5.88) VH: EVQMVESGGGLVQPGGSLRLSCAASGFTLRSYWMSWVRQAPGKGLEWVANIKEDGSEKYHVDSVKGRFTISRDNAENSLFLQMSSLRAEDTAVYYCARDMEASAGLFDYWGQGTLVTVSS VL: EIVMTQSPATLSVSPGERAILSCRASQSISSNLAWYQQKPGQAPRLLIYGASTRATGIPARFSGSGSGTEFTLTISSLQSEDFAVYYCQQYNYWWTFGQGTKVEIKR: no binding
- mAb 5.13.1 (antibody, V domains shown, Human hybridoma IgG (XenoMouse); also called x5.13) VH: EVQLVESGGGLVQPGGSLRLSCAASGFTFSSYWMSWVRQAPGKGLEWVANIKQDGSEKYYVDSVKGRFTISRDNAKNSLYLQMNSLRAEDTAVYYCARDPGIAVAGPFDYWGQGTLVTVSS VL: EIVMTQSPATLSVSPGERATLSCRASQSVSSNLAWYQQKPGQAPRLLIYGASTRATGIPARFSGSGSGTEFTLTISSLQSEDFAVYYCQQYNHWWTFGQGTKVEIKR: no binding
